Value source: the PolyMetriX glass transition set

Quick list: glass transition temperature per entry.
The answer is to be given in °C; state only the numeric part.

Worked examples, 2 molecules total:
*CCCCCCCCNC(=O)c1ccc(C(=O)N*)c(Oc2ccccc2)c1 (repeat unit)    96.00
*CCOC(=O)/C=C/C(=O)NCCCCCCNC(=O)/C=C/C(=O)O* (repeat unit)    89.00

(Q) Form field: reported glass transition temperature of *c1ccc2c(c1)C(=O)N(c1ccc(-c3ccc(N4C(=O)c5ccc(C(*)(C(F)(F)F)C(F)(F)F)cc5C4=O)c(OCCCCCCOc4ccc(/C=C/c5ccc(F)cc5)cc4)c3)cc1OCCCCCCOc1ccc(/C=C/c3ccc(F)cc3)cc1)C2=O (repeat unit)
(A) 140.00

(Q) Form field: reported glass transition temperature of *CC(*)CC(C)C (repeat unit)
(A) 35.20

(Q) Form field: reported glass transition temperature of *C(=O)c1ccc2c(c1)C(=O)N(c1ccc(N3C(=O)c4ccc(*)cc4C3=O)c(S(=O)(=O)[O][Na])c1)C2=O (repeat unit)
(A) 214.00

(Q) Form field: reported glass transition temperature of *[Si](*)(CCCC)CCCC (repeat unit)
(A) -40.50

(Q) Form field: reported glass transition temperature of */C=C/C(C(=O)OCc1ccccc1)C(*)C(=O)OCc1ccccc1 (repeat unit)
(A) 21.00

(Q) Form field: reported glass transition temperature of *CC(*)[Si](C)(C)Cc1ccccc1 (repeat unit)
(A) -24.00
